SYSTEM_NAME: HIV-1 RT enzyme (wild type) (Human immunodeficiency virus type 1 group M subtype B)
Construct: The reverse transcriptase (RT) enzyme assay has been adapted to a 96-well microtiter plate format
PROCEDURE_DETAILS: Reverse transcriptase (RT) enzymatic assay (IC50), PicoGreen fluorescence, wild type
Assay type: biochemical
CONDITION_LABEL: RT enzymatic assay, wild type; read-out: IC50 WT
pIC50: −log10 of the molar value.
READOUT_LABEL: pIC50

{"SMILES_TEXT": "CC(C)(C)c1ccc(-n2nnnc2SCC(=O)Nc2ccc(N3CCCC3)cc2Cl)c(Cl)c1", "pIC50": "> 7.30"}
{"SMILES_TEXT": "CC(C)c1ccccc1NC(=O)CSc1nnnn1-c1cccc2ccccc12", "pIC50": "< 7.00"}
{"SMILES_TEXT": "O=C(CSc1nnnn1-c1cccc2ccccc12)Nc1ccccc1", "pIC50": "< 7.00"}
{"SMILES_TEXT": "Clc1ccccc1CCCSc1nnnn1-c1cccc2ccccc12", "pIC50": "< 7.00"}
{"SMILES_TEXT": "Cc1ccc(-n2nnnc2SCC(=O)Nc2ccc(C(=O)O)cc2[N+](=O)[O-])c(Cl)c1", "pIC50": "> 7.30"}

Hi, could you look up pIC50 for each item in my list?
1. CC(C)(C)c1ccc(-n2nnnc2SCC(=O)Nc2ccc(S(=O)(=O)c3ccccc3)cc2Cl)c(Cl)c1
2. O=C1c2ccccc2C(=O)N1CCSc1nnnn1-c1cccc2ccccc12
3. O=C(CSc1nnnn1-c1cccc(Cl)c1)Nc1ccccc1[N+](=O)[O-]

["> 7.30", "< 7.00", "< 7.00"]

For reference, reported pIC50 for CCOc1ccccc1NC(=O)CSc1nnnn1-c1cccc2ccccc12 stands at < 7.00
